Biological target: T1, human CCL17 (human, UniProt Q92583 24-94)
T1 construct: Biotinylated in the Fab ELISAs; also called huCCL17; Bt-huCCL17
T1 sequence: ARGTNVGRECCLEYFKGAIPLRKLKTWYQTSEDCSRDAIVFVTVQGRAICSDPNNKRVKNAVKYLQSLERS
Assay: solution equilibrium affinity (MSD-SEA), TBST, 48 h at 4 °C
Recorded pKd for the following binders
A value of pKd is the negative decimal logarithm of a concentration given in moles per litre.

[
  {
    "binder": "C17B241 (antibody, V domains shown, Full IgG1, kappa) VH: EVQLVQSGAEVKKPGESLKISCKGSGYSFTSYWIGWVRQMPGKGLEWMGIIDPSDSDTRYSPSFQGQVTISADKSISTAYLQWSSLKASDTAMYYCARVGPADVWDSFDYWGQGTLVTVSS VL: DIVMTQSPDSLAVSLGERATINCKSSQSVLNSFTNNNALAWYQQKPGQPPKLLIYEASTRESGVPDRFSGSGSGTDFTLTISSLQAEDVAVYYCQQTNSIPLTFGQGTKVEIK",
    "pKd": 10.30
  },
  {
    "binder": "C17B234 (antibody, V domains shown, Full IgG1, kappa) VH: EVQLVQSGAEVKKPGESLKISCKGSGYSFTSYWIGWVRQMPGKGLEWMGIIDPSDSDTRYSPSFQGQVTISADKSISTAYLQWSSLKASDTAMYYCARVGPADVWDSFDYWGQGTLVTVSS VL: DIVMTQSPDSLAVSLGERATINCKSSQSVLLSFDNINKLAWYQQKPGQPPKLLIYNASTRESGVPDRFSGSGSGTDFTLTISSLQAEDVAVYYCQQFYSVPSTFGQGTKVEIK",
    "pKd": 11.70
  }
]

Consider the record given below.
Asked: Item under review: C17B236 (antibody, V domains shown, Full IgG1, kappa) VH: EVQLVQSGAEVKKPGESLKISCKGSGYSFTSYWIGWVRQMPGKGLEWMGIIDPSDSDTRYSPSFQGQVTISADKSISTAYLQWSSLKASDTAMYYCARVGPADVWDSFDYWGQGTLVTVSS VL: DIVMTQSPDSLAVSLGERATINCKSSQSVLLSPWNSNQLAWYQQKPGQPPKLLIYGASTRESGVPDRFSGSGSGTDFTLTISSLQAEDVAVYYCQQYYLIPSTFGQGTKVEIK . Reported pKd?
Given back: 10.41
